These entries and their values trace back to patent US20210386069A1.

We begin with a simple list: items and their reported chromatographic logP.
experimental-details: log P by HPLC on a reversed-phase column (C 18), EEC Directive 79/831 Annex V.A8
Assay type: physicochemical
recorded-conditions: reversed-phase HPLC column (C 18); preparation examples; log P as defined in table 1 (HPLC, 0.1% aqueous formic acid/acetonitrile)
// return a plain number; no unit text

ClCc1cscc1Br    2.99
Cc1nc2c(F)c(F)ccc2cc1Nc1cccc(F)c1Br    3.28
Cc1nc2c(F)c(F)ccc2cc1Nc1cccc(F)c1-c1cnccc1C1CC1    2.12

## Task GET /values?readout=chromatographic logP&item= Cc1nc2c(F)c(F)ccc2cc1Cc1cccc(F)c1-c1ccc(F)nc1
## Result 3.7

## Task Dear colleague, I am looking for the recorded chromatographic logP of the following compound: Cc1nc2c(F)c(F)ccc2cc1Cc1cscc1-c1ccnc(F)c1
## Result 3.64

## Task chromatographic logP for Nc1cccc(F)c1-c1ccncc1F ?
## Result 2.38

## Task Report chromatographic logP for Cc1nc2c(F)c(F)ccc2cc1Cc1cscc1Br please.
## Result 4.01

###

experimental-details: log P by HPLC on a reversed-phase column (C 18), EEC Directive 79/831 Annex V.A8
Type: physicochemical
recorded-conditions: HPLC reversed-phase C 18, 40° C., 0.1% aqueous formic acid and acetonitrile, linear gradient 10% to 95% acetonitrile
logP values, listed per item

## Task Query: logP; subject: Cc1nc2c(F)c(F)ccc2cc1Nc1ccccc1-c1ccncc1C#N
## Result 1.41

## Task Find the recorded logP belonging to Cc1nc2c(F)c(F)ccc2cc1Nc1ccccc1-c1cncc(C(F)(F)F)c1 and report it.
## Result 3.65

###

Reported logP values for a set of compounds
experimental-details: log P by HPLC on a reversed-phase column (C 18), EEC Directive 79/831 Annex V.A8
Format: physicochemical
recorded-conditions: HPLC reversed-phase C 18, 40° C., 0.1% aqueous formic acid and acetonitrile, linear gradient 10% to 95% acetonitrile
I only need the number, thanks.

Solved cases (3 shown):
Cc1nc2c(F)cccc2nc1Nc1cccc(F)c1-c1ccncc1F [I.015]    2.67
Cc1nc2c(F)c(F)ccc2cc1Nc1ccccc1-c1cnccc1Cl [I.039]    3.22
CCOc1ncccc1-c1c(F)cccc1Nc1cc2ccc(F)c(F)c2nc1C [I.113]    4.13

## Task Any idea what logP was measured for Cc1nc2c(F)c(F)ccc2cc1Nc1cccc(F)c1-c1ccc(OC(C)C)nc1 [I.130] ?
## Result 4.47

## Task Query (compound): Cc1nc2c(F)c(F)ccc2cc1Nc1cccc(F)c1-c1ccnc(Cl)c1 [I.091] ; field requested: logP
## Result 3.69

## Task For the compound shown here, Cc1nc2c(F)cccc2cc1Nc1cc(F)ccc1-c1ccncc1F [I.012] , give the reported logP.
## Result 2.95

## Task Data request, read-out logP, for Cc1nc2c(F)c(F)ccc2cc1Nc1ccccc1-c1cc(Cl)cnc1F [I.095]
## Result 4.01

## Task Give the measured logP of Fc1ccc(Nc2cnc3ccccc3c2)c(-c2cccnc2)c1 [I.001] .
## Result 1.39

###

experimental-details: log P by HPLC on a reversed-phase column (C 18), EEC Directive 79/831 Annex V.A8
Assay type: physicochemical
recorded-conditions: HPLC reversed-phase C 18, 40° C., 0.1% aqueous formic acid and acetonitrile, linear gradient 10% to 95% acetonitrile
measurement-type: logP
Answer field: number only, no words.

Worked set:
CCc1ncccc1-c1ccccc1Nc1cc2ccc(F)c(F)c2nc1C    2.03
Cc1nc2c(F)c(F)ccc2cc1Cc1cccc(F)c1C1=CCCCO1    4.41
Cc1nc2c(F)c(F)ccc2cc1Nc1cccc(F)c1-c1ccc(Cl)nc1    3.72
Cc1nc2c(F)c(F)ccc2cc1Nc1ccccc1-c1cc(Cl)ncc1F    3.91
Cc1nc2c(F)c(F)ccc2cc1Nc1cccc(F)c1-c1ccc(F)nc1    3.46
CCCc1ccncc1-c1c(F)cccc1Nc1cc2ccc(F)c(F)c2nc1C    2.75

## Task What does the record list as logP for Fc1cc(-c2cscc2Cc2cnc3c(F)cccc3c2)ccn1 ?
## Result 3.11

## Task For the compound COc1ccncc1-c1c(F)cccc1Nc1cc2ccc(F)c(F)c2nc1C , what logP is on record?
## Result 1.84

## Task Which logP reading was recorded for the compound Cc1nc2c(F)c(F)ccc2cc1Nc1ccccc1-c1ccc(Cl)nc1 ?
## Result 3.62

## Task Field request: logP | item: Cc1cc(Cl)ncc1-c1ccccc1Nc1cc2ccc(F)c(F)c2nc1C
## Result 3.98

###

# logP listing for each entry below
experimental-details: log P by HPLC on a reversed-phase column (C 18), EEC Directive 79/831 Annex V.A8
Format: physicochemical
recorded-conditions: HPLC reversed-phase C 18, 40° C., 0.1% aqueous formic acid and acetonitrile, linear gradient 10% to 95% acetonitrile

Worked cases, answers included:
CCc1cnccc1-c1c(F)cccc1Nc1cc2ccc(F)c(F)c2nc1C [I.067]    2.41
CCCc1ccncc1-c1ccccc1Nc1cc2ccc(F)c(F)c2nc1C [I.062]    2.41
Cc1cnc(Cl)c(-c2ccccc2Nc2cc3ccc(F)c(F)c3nc2C)c1 [I.084]    3.69
Cc1cncc(C)c1-c1ccccc1Nc1cc2ccc(F)c(F)c2nc1C [I.025]    2.05

Attention now shifts to the item below.
## Task Record request: logP value, item COc1cccc(-c2ccccc2Nc2cc3ccc(F)c(F)c3nc2C)n1 [I.029]
## Result 4.66

###

experimental-details: log P by HPLC on a reversed-phase column (C 18), EEC Directive 79/831 Annex V.A8
Format: physicochemical
recorded-conditions: HPLC reversed-phase C 18, 40° C., 0.1% aqueous formic acid and acetonitrile, linear gradient 10% to 95% acetonitrile
Attribute: logP
Give the figure by itself; no unit, no explanation.

Cc1nc2c(F)c(F)ccc2cc1Nc1ccccc1-c1cccc(=O)n1C    2.52

## Task Consider the molecule shown here: Cc1nc2c(F)c(F)ccc2cc1Nc1ccccc1-c1ccncc1Cl What is its recorded logP?
## Result 3.37

## Task Item Cc1nc2ccccc2nc1Nc1cccc(F)c1-c1ccncc1F has what recorded logP?
## Result 2.57

## Task Requested read-out: logP. Entry: COc1cnccc1-c1ccccc1Nc1cc2ccc(F)c(F)c2nc1C
## Result 2.14

## Task // logP lookup, key: Cc1nc2c(F)c(F)ccc2cc1Nc1ccccc1-c1cc(F)cnc1Cl
## Result 3.81

## Task Request the reported logP associated with COc1ccc(-c2c(F)cccc2Cc2cc3ccc(F)c(F)c3nc2C)cn1
## Result 3.99

## Task Look at this molecule and give its reported logP. Cc1nc2c(F)c(F)ccc2cc1Nc1ccccc1-c1cncc(Cl)c1
## Result 3.54

## Task Requested read-out: logP. Entry: Cc1nc2c(F)c(F)ccc2cc1Cc1cccc(F)c1-c1ccnc(F)c1
## Result 3.65

## Task logP lookup needed for Cc1cc(-c2c(F)cccc2Nc2cc3ccc(F)c(F)c3nc2C)cnc1Cl , thanks.
## Result 3.98

## Task Look up logP: COc1cccc(-c2c(F)cccc2Nc2cc3ccc(F)c(F)c3nc2C)n1
## Result 4.55

## Task State the recorded logP for this entry: Cc1cc(Cl)ncc1-c1c(F)cccc1Nc1cc2ccc(F)c(F)c2nc1C
## Result 4.01

## Task For Cc1nc2c(F)c(F)ccc2cc1Nc1cccc(F)c1-c1ccncc1C#N , what is its reported logP?
## Result 1.46

## Task Data request, read-out logP, for CCc1cnccc1-c1ccccc1Nc1cc2ccc(F)c(F)c2nc1C
## Result 2.08

## Task Entry Cc1cncc(C)c1-c1c(F)cccc1Nc1cc2ccc(F)c(F)c2nc1C has what logP?
## Result 2.28

## Task Recorded logP of CCc1ncccc1-c1c(F)cccc1Nc1cc2ccc(F)c(F)c2nc1C , please.
## Result 2.41

## Task logP for Cc1nc2c(F)c(F)ccc2cc1Nc1cccc(F)c1-c1cncc(C#N)c1 ?
## Result 3.16

## Task Can you look up the measured logP of Cc1nc2c(F)c(F)ccc2cc1Nc1ccccc1-c1ccnc(Cl)c1 for me?
## Result 3.56

## Task Report logP for Cc1nc2c(F)c(F)ccc2cc1Nc1cccc(F)c1-c1ccc(C(F)(F)F)nc1 please.
## Result 3.94

## Task Given Cc1cnc(Cl)c(-c2c(F)cccc2Nc2cc3ccc(F)c(F)c3nc2C)c1 , state its recorded logP.
## Result 3.75

## Task What value of measured logP is listed for Cc1nc2c(F)c(F)ccc2cc1Nc1cccc(F)c1-c1ccncc1 ?
## Result 2.01

###

experimental-details: log P by HPLC on a reversed-phase column (C 18), EEC Directive 79/831 Annex V.A8
Format: physicochemical
recorded-conditions: HPLC reversed-phase C 18, 40° C., 0.1% aqueous formic acid and acetonitrile, linear gradient 10% to 95% acetonitrile
Use label 1 when the recorded logP is no lower than 3; use label 0 when it is lower.

These solved cases illustrate the format of a correct answer.
Cc1nc2c(F)c(F)ccc2cc1Nc1ccccc1-c1ccc(C(F)(F)F)nc1    label 1
COc1cnccc1-c1c(F)cccc1Nc1cc2ccc(F)c(F)c2nc1C    label 0
CCc1ccncc1-c1c(F)cccc1Nc1cc2ccc(F)c(F)c2nc1C    label 0
CCCc1ncccc1-c1c(F)cccc1Nc1cc2ccc(F)c(F)c2nc1C    label 0
CSc1ncccc1-c1ccccc1Nc1cc2ccc(F)c(F)c2nc1C    label 1
Cc1cc(-c2ccccc2Nc2cc3ccc(F)c(F)c3nc2C)ccn1    label 0
COc1ccc(-c2c(F)cccc2Nc2cc3ccc(F)c(F)c3nc2C)c(OC)n1    label 1
Cc1nc2c(F)c(F)ccc2cc1Cc1cccc(F)c1-c1cccnc1F    label 1
Cc1nc2c(F)c(F)ccc2cc1Nc1cccc(F)c1-c1ccncc1Cl    label 1

Let's switch to this compound now.
## Task Please check the record COc1ncccc1-c1c(F)cccc1Nc1cc2ccc(F)c(F)c2nc1C and state if its logP is at or above 3.
## Result label 1
